Test: in vitro
Conditions: human, hela cells, % viability

{"Compound": "O=C(c1ccc(F)cc1)[C@H]1CCCN(C(=O)c2cc[nH]n2)C1 [CBK284331]", "viability at 28.5 h, 10 µM / %": 87.3}
{"Compound": "OCc1ccccc1-c1cncc(NCc2cccs2)n1 [CBK065345]", "viability at 28.5 h, 10 µM / %": 104}
{"Compound": "Cc1ccnc2nc(C(=O)OC(C)C(=O)c3ccc4c(c3)CCC4)nn12 (stereo not drawn) [CBK304528]", "viability at 28.5 h, 10 µM / %": 89.5}

* * *

Experiment: in vitro
Conditions: human, hela cells, % viability
Reported endpoint: viability at 28.5 h, 10 µM (%)

{"Compound": "N#Cc1ccc(C(=O)N2C[C@@H]3C[C@H](C2)c2ccc(-c4cccs4)c(=O)n2C3)cc1 [CBK289180]", "Unit info": "%", "Observed result": 86}
{"Compound": "c1ccc(COC(c2ccccc2)c2nc3ccccc3n2Cc2ccccc2)cc1 (stereo not drawn) [CBK267311]", "Unit info": "%", "Observed result": 98.2}
{"Compound": "C(=N\\Nc1nnnn1-c1ccccc1)/c1ccco1 [CBK007334]", "Unit info": "%", "Observed result": 109}

* * *

Assay: in vitro
Settings: human, hela cells, % viability
Listed here are molecules together with their documented viability at 28.5 h, 10 µM.

{"Sample smiles": "Cc1ccc(SCC(=O)NCc2nc(-c3ccccc3)no2)cc1", "viability at 28.5 h, 10 µM [%]": 102}
{"Sample smiles": "O=C(c1cc(S(=O)(=O)N2CCCCC2)c(Cl)cc1N1CCOCC1)N1CCOCC1", "viability at 28.5 h, 10 µM [%]": 82.5}
{"Sample smiles": "CCCN(c1nc(C)c(Br)c(OC)n1)S(=O)(=O)c1ccc(C)cc1", "viability at 28.5 h, 10 µM [%]": 105}
{"Sample smiles": "O=c1[nH]c2ncc(-c3cncc4ccccc34)nc2n1CCCO", "viability at 28.5 h, 10 µM [%]": 96}

* * *

Listed here are molecules together with their documented viability at 28.5 h, 10 µM.
Assay: in vitro
Conditions: human, hela cells, % viability

{"Molecule": "O=C(CSc1nnc(-c2ccncc2)n1-c1ccccc1)c1ccc(Br)cc1 [CBK266758]", "viability at 28.5 h, 10 µM, %": 93.9}
{"Molecule": "O=S(=O)(NC1CCCCC1Oc1ccccc1)c1ccc(Cl)cc1 (stereo not shown) [CBK264697]", "viability at 28.5 h, 10 µM, %": 114}
{"Molecule": "Cc1ccc(C)c(NC(=O)c2cnc3sccn3c2=O)c1 [CBK287451]", "viability at 28.5 h, 10 µM, %": 85.1}
{"Molecule": "CC1=C(C(=O)Nc2ccccc2)C(c2cccs2)C(C#N)=C(SCC(=O)c2ccc(Br)cc2)N1 (stereo not shown) [CBK261384]", "viability at 28.5 h, 10 µM, %": 104}
{"Molecule": "COc1cc(CNCc2ccccn2)ccc1OCc1ccccc1C [CBK270108C]", "viability at 28.5 h, 10 µM, %": 89.3}
{"Molecule": "Cc1cc(C)cc(-c2ccc(CC3(C(=O)NC(C)CO)CCOCC3)cc2)c1 (stereo not shown) [CBK286523]", "viability at 28.5 h, 10 µM, %": 110}
{"Molecule": "Cc1cc(COc2nccnc2OC2CCN(Cc3ccc(Cl)cc3)CC2)no1 [CBK082949T]", "viability at 28.5 h, 10 µM, %": 85.7}
